# Protocol details: ATG_AP_1_CIS: Attagene CIS-FACTORIAL HepG2 Assay for human Activator Protein 1 (AP-1) (AID 2282931)
# Condition label: HepG2 Attagene cis-factorial AP-1 reporter mRNA; actives raise or lower the signal
The source made the active and inactive calls. Rule for the calls: active = hit-call score of the fitted dose curve at least 0.9, where 1 is the maximum; inactive = score below 0.9.
Outcomes you can answer with include only these: t (active), f (inactive)

Observe how each entry below is paired with its result.
Nc1cc([N+](=O)[O-])ccc1C(=O)O	f
OCCCO	f
OC[C@@H](O)[C@H](O)[C@@H](O)[C@@H](O)CO	f

State the result this test recorded for C=C(C)C(=O)OCCOCCOC(=O)C(=C)C . f

###

# Read-out: serum amyloid A (SAA), SAA1 (gene 6288)
# Protocol details: BSK_CASM3C_SAA: BioMAP Diversity Plus: CASM3C Assay for serum amyloid A (SAA) Biomarker Activity (AID 2283049);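 note: SAA protein level quantified by ELISA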
# Condition label: primary human coronary artery smooth muscle cells; actives raise or lower the signal
The source made the active and inactive calls. How the source made its calls: active means hit-call score of the fitted dose curve at least 0.9, where 1 is the maximum; inactive means score below 0.9.
Give your call using only these classes: 1 (active), -1 (inactive)

Worked examples follow.
CCCCCCCC1CCCC1=O (configuration not stated)	1
c1ccc(OCCOc2ccccc2)cc1	-1
OCC(F)(OC(F)(F)C(F)(OC(F)(F)C(F)(F)C(F)(F)F)C(F)(F)F)C(F)(F)F (configuration not stated)	-1
Nc1ccc(N)c([N+](=O)[O-])c1	-1
O=C(O)C(F)(F)C(F)(F)C(F)(F)C(F)(F)C(F)(F)C(F)(F)C(F)(F)C(F)F	-1
C=C(C)C(N)=O	-1

# lookup: test call for CC(=O)CCC=C(C)CCC=C(C)C -1

What classification did CC(=O)OCC=C(C)CCC=C(C)CCC=C(C)C end up with in this test? -1

Hi, sorry to bother you, what did the test record for CCCCCCCCCCCCS ? -1

###

# Target entity: Glucocorticoid receptor (Homo sapiens) (UniProt P04150)
# Sequence (P04150 whole entry, looked up): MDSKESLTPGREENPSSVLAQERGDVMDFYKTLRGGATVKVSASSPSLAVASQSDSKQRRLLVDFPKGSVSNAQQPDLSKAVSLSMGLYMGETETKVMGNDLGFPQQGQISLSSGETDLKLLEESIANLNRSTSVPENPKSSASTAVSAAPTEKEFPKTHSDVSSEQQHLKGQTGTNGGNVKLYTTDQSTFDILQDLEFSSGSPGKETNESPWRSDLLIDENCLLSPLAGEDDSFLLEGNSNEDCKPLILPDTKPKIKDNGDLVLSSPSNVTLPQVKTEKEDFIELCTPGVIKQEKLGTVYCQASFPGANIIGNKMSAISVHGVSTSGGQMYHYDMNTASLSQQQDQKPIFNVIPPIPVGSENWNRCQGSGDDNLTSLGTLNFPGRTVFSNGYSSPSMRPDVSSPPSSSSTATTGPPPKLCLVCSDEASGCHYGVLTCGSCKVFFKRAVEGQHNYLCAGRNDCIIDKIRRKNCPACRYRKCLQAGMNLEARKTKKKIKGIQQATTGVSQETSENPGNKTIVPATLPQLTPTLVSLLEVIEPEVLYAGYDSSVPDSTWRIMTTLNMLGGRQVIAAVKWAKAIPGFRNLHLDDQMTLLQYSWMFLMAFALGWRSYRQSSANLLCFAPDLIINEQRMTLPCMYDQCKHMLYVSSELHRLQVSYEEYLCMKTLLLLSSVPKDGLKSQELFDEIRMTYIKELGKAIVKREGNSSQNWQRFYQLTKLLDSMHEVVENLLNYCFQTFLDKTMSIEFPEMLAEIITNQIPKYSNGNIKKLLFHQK
# Protocol details: ATG_GR_TRANS: Attagene TRANS-FACTORIAL HepG2 Assay for human Glucocorticoid Receptor (GR) (AID 2282978);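 note: activators score as hits since higher reporter transcript over DMSO is fitted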
# Condition label: HepG2 Attagene TRANS GR reporter, mRNA transcription
# Protocol: ATG_TRANS is a cell-based, multiplexed-readout assay that uses HepG2, a human liver cell line, with measurements taken at 24 hours after chemical dosing in a 24-well plate.ATG_GR_TRANS is one of 30 assay component(s) measured or calculated from the ATG_TRANS assay. […] This assay endpoint, ATG_GR_TRANS, was analyzed in the positive analysis fitting direction relative to DMSO as the negative control and baseline of activity. […]
Records with an inconclusive call do not appear. Active and inactive are the calls of the source. How the source made its calls: active means hit-call score of the fitted dose curve at least 0.9, where 1 is the maximum; inconclusive means response in the unintended direction; inactive means score below 0.9.
Parameter call: string, one of active, inactive

I would be grateful if you could indicate the recorded call for CC1COC(=O)O1 (centres undefined) . inactive

Please let me know the test result on file for CCCCC(CC)COCCO (centres undefined) . inactive

Check the results log: what was the call for CC1(C)[C@H](C=C(Cl)Cl)[C@H]1C(=O)OCc1cccc(Oc2ccccc2)c1 ? inactive

// param item: CC(C)C(=O)OCC=Cc1ccccc1 ; yields the recorded call inactive

Answer briefly: the call reported for O=C(O)c1ccc(C(=O)O)c(C(=O)O)c1 in this assay. inactive

What outcome does the record of this test show for OCCCO ? inactive

Recorded test outcome, item CC(C)(C)c1cc(CCC(=O)OCCSCCOC(=O)CCc2cc(C(C)(C)C)c(O)c(C(C)(C)C)c2)cc(C(C)(C)C)c1O inactive

What was the test verdict on Cc1cccc(C)c1 ? inactive

Fill in: this test's call for CC(C)(O)CCc1ccccc1 is ___ inactive

What did this assay record as the result for CCCCCCCCOS(=O)(=O)O ? inactive
